// data source = ChEMBL document CHEMBL1135217

Target: Integrin alpha-4/beta-1 (Homo sapiens, UniProt P05556+P13612)
Sequence (P05556 whole entry): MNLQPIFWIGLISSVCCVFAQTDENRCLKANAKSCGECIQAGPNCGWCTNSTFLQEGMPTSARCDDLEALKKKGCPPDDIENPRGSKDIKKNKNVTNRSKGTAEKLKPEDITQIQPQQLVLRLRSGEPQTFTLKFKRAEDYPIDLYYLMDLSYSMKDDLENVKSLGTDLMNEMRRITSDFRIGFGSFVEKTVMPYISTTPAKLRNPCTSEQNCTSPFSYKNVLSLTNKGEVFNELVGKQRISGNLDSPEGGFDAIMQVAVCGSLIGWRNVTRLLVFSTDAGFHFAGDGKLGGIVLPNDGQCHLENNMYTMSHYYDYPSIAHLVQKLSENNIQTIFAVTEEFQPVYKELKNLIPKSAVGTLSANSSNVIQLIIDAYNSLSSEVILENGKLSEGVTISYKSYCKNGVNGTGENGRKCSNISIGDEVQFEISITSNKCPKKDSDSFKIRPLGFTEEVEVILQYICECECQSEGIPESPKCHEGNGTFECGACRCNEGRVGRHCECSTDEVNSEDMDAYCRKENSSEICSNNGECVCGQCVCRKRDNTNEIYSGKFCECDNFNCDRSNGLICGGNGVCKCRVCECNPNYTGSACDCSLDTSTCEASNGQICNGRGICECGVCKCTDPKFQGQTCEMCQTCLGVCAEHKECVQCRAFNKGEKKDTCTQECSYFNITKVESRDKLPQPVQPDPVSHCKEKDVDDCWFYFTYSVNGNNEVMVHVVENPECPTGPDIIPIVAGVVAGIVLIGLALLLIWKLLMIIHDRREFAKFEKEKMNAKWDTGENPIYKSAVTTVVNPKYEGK
Sequence (P13612 whole entry): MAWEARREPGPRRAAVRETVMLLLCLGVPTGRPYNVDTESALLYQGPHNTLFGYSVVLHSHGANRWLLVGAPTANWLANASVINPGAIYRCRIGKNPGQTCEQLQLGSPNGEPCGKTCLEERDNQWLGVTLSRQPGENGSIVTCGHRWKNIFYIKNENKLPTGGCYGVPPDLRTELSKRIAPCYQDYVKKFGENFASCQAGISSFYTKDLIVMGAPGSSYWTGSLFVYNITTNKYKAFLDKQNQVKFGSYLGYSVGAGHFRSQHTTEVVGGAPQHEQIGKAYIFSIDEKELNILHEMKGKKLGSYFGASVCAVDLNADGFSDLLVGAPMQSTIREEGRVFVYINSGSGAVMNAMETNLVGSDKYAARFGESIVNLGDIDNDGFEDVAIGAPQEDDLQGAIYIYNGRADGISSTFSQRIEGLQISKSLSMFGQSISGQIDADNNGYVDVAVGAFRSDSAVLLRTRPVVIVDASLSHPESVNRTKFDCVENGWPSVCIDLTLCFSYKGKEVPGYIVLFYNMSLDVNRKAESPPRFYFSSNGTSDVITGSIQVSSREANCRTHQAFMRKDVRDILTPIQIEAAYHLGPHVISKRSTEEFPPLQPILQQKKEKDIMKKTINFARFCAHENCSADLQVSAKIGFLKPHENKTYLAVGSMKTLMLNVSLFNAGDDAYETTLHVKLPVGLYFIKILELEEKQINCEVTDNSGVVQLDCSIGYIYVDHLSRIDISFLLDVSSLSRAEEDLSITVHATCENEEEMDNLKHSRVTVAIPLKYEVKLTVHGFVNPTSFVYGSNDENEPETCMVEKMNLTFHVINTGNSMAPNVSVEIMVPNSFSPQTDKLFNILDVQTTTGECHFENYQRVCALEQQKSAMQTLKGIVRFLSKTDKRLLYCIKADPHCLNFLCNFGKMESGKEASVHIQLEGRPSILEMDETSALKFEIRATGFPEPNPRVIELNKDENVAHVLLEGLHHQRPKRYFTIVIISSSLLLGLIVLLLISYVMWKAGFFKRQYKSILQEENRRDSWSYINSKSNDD
Assay: In vitro inhibition of [125I]VCAM-Ig binding to very late antigen -4 on jurkat cells.
parameter: IC50 (nM)

Here's what some known entries look like.
COc1cccc(OC)c1-c1ccc(CC(Nc2cccc(C#N)c2)C(=O)O)cc1 (stereo not given) ... 4360
COc1cccc(OC)c1-c1ccc(C[C@H](NC(C)=O)C(=O)O)cc1 ... 12
COc1cccc(OC)c1-c1ccc(CC(Nc2ccc(C(F)(F)F)cn2)C(=O)O)cc1 (stereo not given) ... 3190
COc1cccc(NC(Cc2ccc(-c3c(OC)cccc3OC)cc2)C(=O)O)n1 (stereo not given) ... 4180
COc1cccc(OC)c1-c1ccc(CC(Nc2ccccc2)C(=O)O)cc1 (stereo not given) ... 8870

a = COc1cccc(OC)c1-c1ccc(CC(Nc2ccc(C#N)cc2)C(=O)O)cc1 (stereo not given)
b = COc1cccc(OC)c1-c1ccc(CC(Nc2ccc(S(=O)(=O)N3CCCC3)cc2)C(=O)O)cc1 (stereo not given)
c = COc1cccc(OC)c1-c1ccc(CC(Nc2cccc(S(=O)(=O)N3CCCC3)c2)C(=O)O)cc1 (stereo not given)
d = COc1cccc(OC)c1-c1ccc(CC(Nc2ccc(S(=O)(=O)c3ccccc3)cc2)C(=O)O)cc1 (stereo not given)
e = CCCS(=O)(=O)c1cc(NC(Cc2ccc(-c3c(OC)cccc3OC)cc2)C(=O)O)ncn1 (stereo not given)
Enquiry: Give the ascending ranking of the items by reported IC50. Return value: ordered labels per request.
Return: e, c, b, d, a

====

Assay: Bioavailability in rat (Sprague-Dawley)
Assay type: ADME, organism-based
Conditions: in vivo
parameter: bioavailability (%)

a = CCCS(=O)(=O)c1cc(NC(Cc2ccc(-c3c(OC)cccc3OC)cc2)C(=O)O)ncn1 (configuration not stated)
b = COc1cccc(OC)c1-c1ccc(CC(Nc2cccc(S(=O)(=O)N3CCCC3)c2)C(=O)O)cc1 (configuration not stated)
Enquiry: # argmax over bioavailability for candidates a and b Give the label under which the chosen entry appears.
Return: b

====

Molecular target: Integrin alpha-4/beta-1 (Homo sapiens, UniProt P05556+P13612)
Assay: In vitro inhibition of [125I]VCAM-Ig binding to very late antigen -4 on jurkat cells.
parameter: IC50 (nM)

COc1cccc(OC)c1-c1ccc(CC(Nc2ccccn2)C(=O)O)cc1 (stereo not given) ... 610
COc1cccc(OC)c1-c1ccc(CC(Nc2ccc(C(=O)N3CCCC3)cn2)C(=O)O)cc1 (stereo not given) ... 23

1 = COc1cccc(OC)c1-c1ccc(CC(Nc2ccccc2[N+](=O)[O-])C(=O)O)cc1 (stereo not given)
2 = COc1cccc(OC)c1-c1ccc(CC(Nc2ccc(S(C)(=O)=O)cc2)C(=O)O)cc1 (stereo not given)
3 = COc1cccc(OC)c1-c1ccc(CC(Nc2cc(Cl)cc(Cl)c2)C(=O)O)cc1 (stereo not given)
Enquiry: Could you please sort these 3 entries by IC50 from high to low? Return the labels ranked in the requested order, please.
Return: 3, 1, 2

1 = COc1cccc(OC)c1-c1ccc(CC(Nc2cccnc2)C(=O)O)cc1 (stereo not given)
2 = COc1cccc(OC)c1-c1ccc(CC(Nc2ccc(C(=O)N3CCCC3)cc2)C(=O)O)cc1 (stereo not given)
3 = COc1cccc(OC)c1-c1ccc(CC(Nc2ccncc2)C(=O)O)cc1 (stereo not given)
4 = COc1cccc(OC)c1-c1ccc(CC(NC(=O)c2ccccc2)C(=O)O)cc1 (stereo not given)
Enquiry: Number of compounds to sort: 4. Sort criterion: IC50, ascending. Returns: the labels listed in the requested order.
Return: 4, 3, 2, 1
